system: OVCAR-3; assay: Growth inhibition of human OVCAR3 cells incubated for 48 hrs by sulforhodamine B assay; type: functional, cell-based; conditions: OVCAR-3, 48 h, read-out: pTGI (converted)
measureName: TGI (µM)
Provide the reading as a plain figure in µM.

Query: For COc1cc(Cl)cc(-c2nn(-c3cccc(NC(=O)Nc4ccc(Cl)c(C(F)(F)F)c4)c3)cc2-c2ccncc2)c1 , what is its reported TGI?
Result: 28.8

Query: What do you get for O=C(Nc1cccc(-n2cc(-c3ccncc3)c(-c3cc(O)cc(Cl)c3)n2)c1)c1cc(C(F)(F)F)cc(C(F)(F)F)c1 ?
Result: 10.2

====

test system: SK-MEL-2; experiment: Growth inhibition of human SK-MEL-2 cells incubated for 48 hrs by sulforhodamine B assay; assay type: functional, cell-based; conditions: SK-MEL-2, 48 h, read-out: pGI50 (converted)
Please go through the items and note down their GI50.
Provide the reading as a plain figure in nM.

Query: Under SK-MEL-2: GI50 value of COc1cc(Cl)cc(-c2nn(-c3cccc(NC(=O)Nc4ccc(Cl)c(C(F)(F)F)c4)c3)cc2-c2ccncc2)c1 ?
Result: 1780

Query: What do you get for O=C(Nc1cccc(-n2cc(-c3ccncc3)c(-c3cc(O)cc(Cl)c3)n2)c1)c1ccc(N2CCOCC2)c(C(F)(F)F)c1 ?
Result: 2340

Query: What do you get for O=C(Nc1cccc(-n2cc(-c3ccncc3)c(-c3cc(O)cc(Cl)c3)n2)c1)Nc1ccc(Cl)c(C(F)(F)F)c1 ?
Result: 2240

Query: What do you get for COc1cc(Cl)cc(-c2nn(-c3cccc(NC(=O)c4ccc(N5CCOCC5)c(C(F)(F)F)c4)c3)cc2-c2ccncc2)c1 ?
Result: 26300

====

Please go through the items and note down their TGI.
tested on: BT-549; test: Growth inhibition of human BT549 cells incubated for 48 hrs by sulforhodamine B assay; format: functional, cell-based; settings: BT-549, 48 h, read-out: TGI
Provide the reading as a plain figure in µM.

Query: Under BT-549: TGI value of COc1cc(Cl)cc(-c2nn(-c3cccc(NC(=O)Nc4ccc(Cl)c(Cl)c4)c3)cc2-c2ccncc2)c1 ?
Result: 62.5

Query: What do you get for COc1cc(Cl)cc(-c2nn(-c3cccc(NC(=O)Nc4cc(C(F)(F)F)cc(C(F)(F)F)c4)c3)cc2-c2ccncc2)c1 ?
Result: 7.14

Query: What do you get for COc1cc(Cl)cc(-c2nn(-c3cccc(NC(=O)Nc4cccc(C(F)(F)F)c4)c3)cc2-c2ccncc2)c1 ?
Result: 55

====

Please go through the items and note down their CC50.
test system: M14; assay: Growth inhibition of human M14 cells incubated for 48 hrs by sulforhodamine B assay; type: functional, cell-based; conditions: M14, 48 h, read-out: LC50 (the source's name)
Provide the reading as a plain figure in µM.

Query: For COc1cc(Cl)cc(-c2nn(-c3cccc(NC(=O)Nc4cccc(C(F)(F)F)c4)c3)cc2-c2ccncc2)c1 , what is its reported CC50?
Result: 15.3

Query: What do you get for O=C(Nc1cccc(-n2cc(-c3ccncc3)c(-c3cc(O)cc(Cl)c3)n2)c1)Nc1ccc(Cl)c(C(F)(F)F)c1 ?
Result: 55.8

Query: What do you get for O=C(Nc1cccc(-n2cc(-c3ccncc3)c(-c3cc(O)cc(Cl)c3)n2)c1)c1ccc(N2CCOCC2)c(C(F)(F)F)c1 ?
Result: 54.5

====

system: ACHN; assay: Growth inhibition of human ACHN cells assessed as cell growth at 0.01 uM incubated for 48 hrs by sulforhodamine B assay relative to control; format: functional; settings: read-out: Activity
Please go through the items and note down their growth at 0.01 µM.
Provide the reading as a plain figure in %.

Query: For COc1cc(Cl)cc(-c2nn(-c3cccc(NC(=O)Nc4ccc(Cl)c(Cl)c4)c3)cc2-c2ccncc2)c1 , what is its reported growth at 0.01 µM?
Result: 102

Query: What do you get for COc1cc(Cl)cc(-c2nn(-c3cccc(NC(=O)c4ccc(N5CCOCC5)c(C(F)(F)F)c4)c3)cc2-c2ccncc2)c1 ?
Result: 100

Query: What do you get for O=C(Nc1cccc(-n2cc(-c3ccncc3)c(-c3cc(O)cc(Cl)c3)n2)c1)Nc1ccc(Cl)c(Cl)c1 ?
Result: 91

Query: What do you get for COc1cc(Cl)cc(-c2nn(-c3cccc(NC(=O)Nc4ccc(Cl)c(C(F)(F)F)c4)c3)cc2-c2ccncc2)c1 ?
Result: 91

====

tested on: HL-60(TB); assay: Growth inhibition of human HL-60(TB) cells incubated for 48 hrs by sulforhodamine B assay; format: functional, cell-based; conditions: HL-60, 48 h, read-out: pLC50 (converted)
measureName: LC50

Query: For COc1cc(Cl)cc(-c2nn(-c3cccc(NC(=O)Nc4cccc(C(F)(F)F)c4)c3)cc2-c2ccncc2)c1 , what is its reported LC50?
Result: > 100 µM

Query: What do you get for O=C(Nc1cccc(-n2cc(-c3ccncc3)c(-c3cc(O)cc(Cl)c3)n2)c1)Nc1ccc(Cl)c(C(F)(F)F)c1 ?
Result: > 100 µM

Query: What do you get for O=C(Nc1cccc(-n2cc(-c3ccncc3)c(-c3cc(O)cc(Cl)c3)n2)c1)Nc1ccc(Cl)c(Cl)c1 ?
Result: > 100 µM

Query: What do you get for COc1cc(Cl)cc(-c2nn(-c3cccc(NC(=O)Nc4cc(C(F)(F)F)cc(C(F)(F)F)c4)c3)cc2-c2ccncc2)c1 ?
Result: > 100 µM

====

test system: PC-3; assay: Growth inhibition of human PC3 cells incubated for 48 hrs by sulforhodamine B assay; format: functional, cell-based; settings: PC-3, 48 h
measureName: pIC50
Friendly reminder that pIC50 comes from taking -log10 of the concentration in mol/L.

Query: For O=C(Nc1cccc(-n2cc(-c3ccncc3)c(-c3cc(O)cc(Cl)c3)n2)c1)Nc1ccc(Cl)c(C(F)(F)F)c1 , what is its reported pIC50?
Result: 5.68

Query: What do you get for COc1cc(Cl)cc(-c2nn(-c3cccc(NC(=O)Nc4cc(C(F)(F)F)cc(C(F)(F)F)c4)c3)cc2-c2ccncc2)c1 ?
Result: 6.52

Query: What do you get for COc1cc(Cl)cc(-c2nn(-c3cccc(NC(=O)c4ccc(N5CCOCC5)c(C(F)(F)F)c4)c3)cc2-c2ccncc2)c1 ?
Result: 5.48

Query: What do you get for O=C(Nc1cccc(-n2cc(-c3ccncc3)c(-c3cc(O)cc(Cl)c3)n2)c1)c1ccc(N2CCOCC2)c(C(F)(F)F)c1 ?
Result: 5.96

====

tested on: HCT-116; experiment: Growth inhibition of human HCT116 cells incubated for 48 hrs by sulforhodamine B assay; format: functional, cell-based; settings: HCT-116, 48 h, read-out: TGI
Please go through the items and note down their TGI.
Provide the reading as a plain figure in µM.

Query: For COc1cc(Cl)cc(-c2nn(-c3cccc(NC(=O)Nc4ccc(Cl)c(C(F)(F)F)c4)c3)cc2-c2ccncc2)c1 , what is its reported TGI?
Result: 23.6

Query: What do you get for O=C(Nc1cccc(-n2cc(-c3ccncc3)c(-c3cc(O)cc(Cl)c3)n2)c1)Nc1ccc(Cl)c(Cl)c1 ?
Result: 41

====

test system: HCC 2998; assay: Growth inhibition of human HCC2998 cells assessed as cell growth at 1 uM incubated for 48 hrs by sulforhodamine B assay relative to control; assay type: functional; settings: HCC 2998, 48 h, read-out: Activity
Please go through the items and note down their growth at 1 µM.
Provide the reading as a plain figure in %.

Query: For O=C(Nc1cccc(-n2cc(-c3ccncc3)c(-c3cc(O)cc(Cl)c3)n2)c1)c1cc(C(F)(F)F)cc(C(F)(F)F)c1 , what is its reported growth at 1 µM?
Result: 96

Query: What do you get for COc1cc(Cl)cc(-c2nn(-c3cccc(NC(=O)Nc4cccc(C(F)(F)F)c4)c3)cc2-c2ccncc2)c1 ?
Result: 98

Query: What do you get for O=C(Nc1cccc(-n2cc(-c3ccncc3)c(-c3cc(O)cc(Cl)c3)n2)c1)Nc1ccc(Cl)c(C(F)(F)F)c1 ?
Result: 106

Query: What do you get for O=C(Nc1cccc(-n2cc(-c3ccncc3)c(-c3cc(O)cc(Cl)c3)n2)c1)c1ccc(N2CCOCC2)c(C(F)(F)F)c1 ?
Result: 70

====

tested on: NCI-H226; assay: Growth inhibition of human NCI-H226 cells assessed as cell growth at 0.01 uM incubated for 48 hrs by sulforhodamine B assay relative to control; type: functional; conditions: NCI-H226, 48 h, read-out: Activity
measureName: growth at 0.01 µM
Show the value, then the unit it is measured in.

Query: Under NCI-H226: growth at 0.01 µM value of O=C(Nc1cccc(-n2cc(-c3ccncc3)c(-c3cc(O)cc(Cl)c3)n2)c1)Nc1ccc(Cl)c(Cl)c1 ?
Result: 94%

Query: What do you get for O=C(Nc1cccc(-n2cc(-c3ccncc3)c(-c3cc(O)cc(Cl)c3)n2)c1)c1cc(C(F)(F)F)cc(C(F)(F)F)c1 ?
Result: 95%

Query: What do you get for COc1cc(Cl)cc(-c2nn(-c3cccc(NC(=O)Nc4ccc(Cl)c(Cl)c4)c3)cc2-c2ccncc2)c1 ?
Result: 96%

Query: What do you get for COc1cc(Cl)cc(-c2nn(-c3cccc(NC(=O)Nc4cccc(C(F)(F)F)c4)c3)cc2-c2ccncc2)c1 ?
Result: 95%
